Reference for the values: ChEMBL document CHEMBL4765308

- Tested on: HepG2
- ASSAY_PROTOCOL: Cytotoxicity against human HepG2 cells at 50 uM incubated for 48 hrs […]
- Assay type: cell-based
- MEASUREMENT_PARAMETERS: hepg2, 48 h
TEST_READOUT: Activity

// compound O=C(Nc1ccccc1)OC1CCCN(C2Cc3ccccc3C2)C1 (centres undefined) , assay HepG2, Activity value: Non-Toxic

// compound C#CCN1CCC(OC(=O)Nc2ccc(C(C)C)cc2)CC1 , assay HepG2, Activity value: Non-Toxic

// compound O=C(Nc1ccccc1)OCC1CCN(Cc2ccccc2)CC1 , assay HepG2, Activity value: Non-Toxic

// compound CC(C)c1ccc(NC(=O)OCC2CCN(Cc3ccccc3)CC2)cc1 , assay HepG2, Activity value: Non-Toxic

###

Field: pIC50. Provide a value for each of the molecules that follow.
- TARGET: Amine oxidase [flavin-containing] B (Homo sapiens, UniProt P27338)
- Sequence (P27338 whole entry): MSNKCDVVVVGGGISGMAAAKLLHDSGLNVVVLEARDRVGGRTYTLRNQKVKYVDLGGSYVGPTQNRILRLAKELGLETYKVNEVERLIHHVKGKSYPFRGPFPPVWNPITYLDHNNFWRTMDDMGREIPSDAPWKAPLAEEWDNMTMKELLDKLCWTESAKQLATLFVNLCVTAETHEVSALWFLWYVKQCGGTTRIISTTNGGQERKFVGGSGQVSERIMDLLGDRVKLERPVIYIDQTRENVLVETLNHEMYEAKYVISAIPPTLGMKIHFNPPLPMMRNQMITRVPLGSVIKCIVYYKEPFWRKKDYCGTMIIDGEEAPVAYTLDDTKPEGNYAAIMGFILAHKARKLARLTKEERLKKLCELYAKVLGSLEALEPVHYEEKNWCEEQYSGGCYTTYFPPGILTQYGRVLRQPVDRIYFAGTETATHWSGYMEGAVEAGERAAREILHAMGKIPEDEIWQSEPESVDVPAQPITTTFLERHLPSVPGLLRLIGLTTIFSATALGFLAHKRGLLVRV
- ASSAY_PROTOCOL: Inhibition of human recombinant microsomal MAO-B expressed in baculovirus-infected BTI-TN-5B1-4 cells assessed as inhibition of H2O2 production using p-tyramine as substrate preincubated for 15 mins followed by substrate addition by Amplex Red reagent based fluorescence analysis
pIC50: −log10 of the molar value.

For orientation, consider the following solved cases.
// molecule O=C(Nc1ccccc1)OCC1CCCN(Cc2ccccc2)C1 (stereo not drawn) , assay Amine oxidase [flavin-containing] B (Homo sapiens, UniProt P27338), pIC50 value: 4.40

// molecule C#CCN1CCC(O)CC1 , assay Amine oxidase [flavin-containing] B (Homo sapiens, UniProt P27338), pIC50 value: < 4.00

// molecule CC(C)c1ccc(NC(=O)OC2CCCN(Cc3ccccc3)C2)cc1 (stereo not drawn) , assay Amine oxidase [flavin-containing] B (Homo sapiens, UniProt P27338), pIC50 value: 4.53

// molecule O=C(Nc1ccccc1)OC1CCN(C2Cc3ccccc3C2)CC1 , assay Amine oxidase [flavin-containing] B (Homo sapiens, UniProt P27338), pIC50 value: < 4.00

// molecule OCC1CCCN(C2Cc3ccccc3C2)C1 (stereo not drawn) , assay Amine oxidase [flavin-containing] B (Homo sapiens, UniProt P27338), pIC50 value: < 4.00

// molecule C#CCN1CCCC(OC(=O)Nc2ccc(C(C)C)cc2)C1 (stereo not drawn) , assay Amine oxidase [flavin-containing] B (Homo sapiens, UniProt P27338), pIC50 value: 4.14

Look at each molecule and report its pIC50.
1. OC1CCN(C2Cc3ccccc3C2)CC1
2. OC1CCCN(C2Cc3ccccc3C2)C1 (stereo not drawn)
3. CCN(C)C(=O)OC1CCN(Cc2ccccc2)CC1

A.
< 4.00
< 4.00
< 4.00

###

Field: inhibition. Provide a value for each of the compounds that follow.
- Species: Homo sapiens
- ASSAY_PROTOCOL: Inhibition of HFIP-pretreated human amyloid beta (1 to 42) self aggregation at 10 uM incubated for 36 to 48 hrs by thioflavin-T based fluorescence method relative to control
- MEASUREMENT_PARAMETERS: time 36-48 hrs
Counter-ions that a name gives are not always drawn.

compound CCN(C)C(=O)Oc1cccc([C@H](C)N(C)C)c1 [RIVASTIGMINE TARTRATE] , inhibition observed: < 20%

compound CC(C)c1ccc(NC(=O)OCC2CCN(Cc3ccccc3)CC2)cc1 , inhibition observed: < 20%

compound O=C(Nc1ccccc1)OCC1CCN(Cc2ccccc2)CC1 , inhibition observed: < 20%

Look at each compound and report its inhibition.
1. Oc1ccc(/C=C/c2cc(O)cc(O)c2)cc1
2. C#CCN1CCC(OC(=O)Nc2ccc(C(C)C)cc2)CC1
3. O=C(Nc1ccccc1)OC1CCCN(C2Cc3ccccc3C2)C1 (stereo not drawn)
4. C#CCN[C@@H]1CCc2ccccc21 [RASAGILINE MESYLATE]
5. COc1cc2c(cc1OC)C(=O)C(CC1CCN(Cc3ccccc3)CC1)C2 (stereo not drawn)

A.
1. 86.6%
2. 25.7%
3. < 20%
4. < 20%
5. < 20%
